Measurement notes: HepG2 cytotoxicity, primary screen, cytotoxicity control for P. falciparum antimalarial project, cell-based, ATP luminescence (AID 2303);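 note: 0% = DMSO wells and 100% = digitonin-killed cells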
Test settings: HepG2 viability, 24-48 h, at 10 µM, stronger effect = higher value
Measured attribute: inhibition (%)
Reply numerically in %, unit not repeated.

Worked cases, answers included:
# Compound, inhibition (%)
data = [
    ("N#CCOc1c(C2CCN(CCCCNC(=O)c3ccc(-c4ccc(C(F)(F)F)cc4)cc3)CC2)ccc2c1CCCC2", 59),
    ("CC(C)(c1ccccc1)c1ccc(O)c(CN2CCOCC2)c1", -7),
    ("Nc1cc(C=Cc2ccc([N+](=O)[O-])o2)nc2ccccc12", 100),
    ("Cc1cc(C(F)(F)F)cc(-n2ncc(-c3ccc(C(=O)NCCNCc4ccccc4)cc3)c2N)n1", 98),
    ("COCCNCc1cccc(-c2ccc3nccc(Nc4cc(O)ccc4C)c3c2)c1", -1),
]

# ---- query compound ----
So for CCCC1N=C(N)N=C(N)N1c1ccccc1 (stereo unspecified) , the logged inhibition turned out to be -4

* * *

Measurement notes: HepG2 cytotoxicity, primary screen, cytotoxicity control for P. falciparum antimalarial project, cell-based, ATP luminescence (AID 2303);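 note: 0% = DMSO wells and 100% = digitonin-killed cells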
Test settings: HepG2 viability, 24-48 h, at 10 µM, stronger effect = higher value
Measured attribute: inhibition (%)
Reply with just the number (in %).

# Molecule, inhibition [%]
measured = [
    ("CC(C)COc1ccc(Cl)cc1Cc1nc(-c2nc3ccc(CN4CCCCC4)cc3[nH]2)co1", 49),
    ("COc1ccc(C(C(=O)NC2CCN(C[C@H](O)c3ccnc4ccc(OC)cc34)CC2)N2CCN(c3ccc(Cl)c(Cl)c3)CC2)cc1 (some centres undefined)", 12),
    ("c1cc(CN2CCN(CCN3CCOCC3)CC2)cc(-c2cccc(-c3nc4ccccc4[nH]3)c2)c1", 29),
    ("O=C(O)Cc1ccc(-c2c[nH]c3ncc(-c4cccc5ncccc45)cc23)cc1", 7),
    ("CC(Oc1c(C2CCN(CCCCNC(=O)c3ccc(-c4ccc(C#N)cc4)cc3)CC2)ccc2c1CCCC2)C(N)=O (centres undefined)", 41),
]

Given item CCCNCc1ccc(-c2ccc(CN(CCOC)C(=O)c3nn(-c4ccccc4)nc3C)cc2)nc1 , the value recorded as its inhibition is 18

Memo: CC(=O)N(Cc1nc(-c2cc(C(F)(F)F)cc(C(F)(F)F)c2)cs1)c1c(C)cccc1C , reported inhibition: -2

Data point: Cc1csc2nc(-c3ccccn3)nc(Nc3ccncn3)c12 ; inhibition = 47

Lab note: CCCNCc1ccc(-c2ccc(CN(CCOC)C(=O)c3ccco3)cc2)nc1 gave inhibition of 1

Reported inhibition ( O=C(NCCCN1CCOCC1)c1ccc(-c2cccc(NC(=O)c3ccc(Cl)c(Cl)c3)c2)cc1 ) = 3

// COc1c(C(=O)NC2CCN(Cc3ccccc3)C2)cnc2ccccc12 (centres undefined) : inhibition value = 2

# molecule COc1ccc(CNCc2ccccc2)cc1-c1ccc(OC)c(S(=O)(=O)NCCN2CCCC2)c1 ; its inhibition = 14

Value of measured inhibition for the entry Cc1cccc(CNc2nc(C)cc(N[C@@H](Cc3ccccc3)C(=O)NC3CCCC3)n2)c1 : 51

Recorded inhibition (molecule Cc1ccc(NC(=O)c2ccc(CN3CCCN(CC4CCCCC4)CC3)cc2)cc1 ): 41

The reported inhibition of the molecule CS(=O)(=O)c1cccc(-c2cnc3[nH]cc(-c4ccc(C(=O)O)cc4)c3c2)c1 was 6

molecule OCC(CO)(CO)NCc1ccc2c3c(cccc13)-c1ccccc1-2 , inhibition observed: 73

* * *

Measurement notes: antimalarial activity against Dd2 strain (AID 2302);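 note: 0% = DMSO untreated growth and 100% = chloroquine plus artemisinin killed control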
Test settings: P. falciparum Dd2 in RBCs, LDH growth readout, 72 h; at 2 µM
Calls of active or inactive are those of the source.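 How the source made its calls: active means growth inhibition above 50% at the single 2 µM test dose, taken to imply half-maximal potency below 2 µM; inactive means the rest.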
Would you mind answering with one of these outcomes? 1 (active), -1 (inactive)

# Compound, Group label
measured = [
    ("CCOC(=O)c1c[nH]c2c(sc3cc(OC)ccc32)c1=O", 1),
    ("CC(C)N1CCN(C(CN2CCN(CCCOc3ccc4ccccc4c3)CC2)c2ccc(F)cc2)CC1 (stereo not given)", 1),
    ("Cc1ccc(-c2ccn(Cc3cccc(OCc4ccccc4)c3)n2)cn1 (tested in a mixture with another compound)", 1),
]

Task item: Hi, sorry to bother you, what did the test record for COc1cc(C2CCN(CCCCNC(=O)c3ccc(NC(=O)c4cc(C(F)(F)F)cc(C(F)(F)F)c4)cc3)CC2)ccc1OC(C)C ?
Reply: 1

Task item: Write down the call the test reported for this compound. Item: CCN(CCCNc1nc(=S)[nH]c2cc(OC)c(OC)cc12)c1ccccc1
Reply: -1

Task item: Which outcome was entered for the compound Nc1nc(N)c2c(CCc3ccc4ccccc4c3)cccc2n1 in this test?
Reply: -1

Task item: Could you kindly confirm the outcome this assay logged for C#Cc1cccc(NC(=O)[C@H](CC2CCCCC2)Nc2ccc(C#N)c3ccccc23)c1 ?
Reply: 1

Task item: Give the logged outcome of this assay for the following compound: CCc1[nH]nc(C(=O)Nc2cccc(N3CCCC3)c2)c1C
Reply: 1

* * *

Attribute: inhibition
Measurement notes: HepG2 cytotoxicity, primary screen, cytotoxicity control for P. falciparum antimalarial project, cell-based, ATP luminescence (AID 2303);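 note: 0% = DMSO wells and 100% = digitonin-killed cells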
Test settings: HepG2 viability, 24-48 h, at 10 µM, stronger effect = higher value
Could you give me the number in %? Just the number is fine.

Please review the entries below; each comes with its answer.
# Compound, Measured attribute, Value units, Result number
measured = [
    ("O=C(Nc1ccc(Cl)cc1)Nc1ccc(Cn2ncc(N3CCCNCC3)c(Cl)c2=O)cc1", "inhibition", "%", 49),
    ("Cc1cc(N)c2cc(NC(=O)c3ccc4ccccc4c3)ccc2n1", "inhibition", "%", 33),
    ("Cc1noc(-c2ccc3c(c2)CCN(CCC2CCC(NC(=O)c4cc5ccccc5[nH]4)CC2)CC3)n1 (centres undefined)", "inhibition", "%", 21),
    ("CCc1c[nH]c2c(N3CCCC3=O)cc(C(=O)N[C@@H](Cc3ccccc3)[C@H](O)CNC(C)(C)c3cccc(OC)c3)cc12", "inhibition", "%", 0),
]

// inhibition lookup, compound = Cc1ccc(C)c(CN2CCC(CNC(=O)c3cc4ccc5cccnc5c4[nH]3)CC2)c1 , result: 25

Sample O=C(Nc1cccc(CN2CCCN(Cc3ccc(O)cc3)CC2)c1)c1ccc(Br)cc1 ; inhibition observed: 19

inhibition reported for this compound Cc1cc(Nc2cccc(C(F)(F)F)c2)nc(NCc2ccccc2)n1 : 17

What the record says about Cc1ccc(CNC(=O)[C@H](CC(C)C)Nc2cc(C)nc(NCC3CCCCC3)n2)cc1 : inhibition is 6

Short answer for CC(=O)c1ccc(N2CCN(C(=O)Nc3ccc(Cl)cc3)CC2)cc1 : inhibition was 4

* * *

Test target: L-lactate dehydrogenase (Plasmodium falciparum (isolate CDC / Honduras))
Measurement notes: PfLDH activity inhibition – cell lysate, 3D7 strain, counter-screen for P. falciparum growth inhibition project (AID 2304);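 note: 0% = vehicle and 100% = reference inhibitor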
Test settings: P. falciparum 3D7 crude extract, LDH APAD/NBT absorbance; at 2 µM; stronger effect = higher value
Calls of active or inactive are those of the source. The rule behind the calls is not given here.
Measured attribute: inhibition

For Cc1ccc(-n2nc3ccc(NC(=O)c4ccc([N+](=O)[O-])o4)cc3n2)cc1C the molecule record lists inhibition as -3% (inactive)

* * *

Test target: L-lactate dehydrogenase (Plasmodium falciparum (isolate CDC / Honduras))
Measurement notes: PfLDH activity inhibition – cell lysate, 3D7 strain, counter-screen for P. falciparum growth inhibition project (AID 2304);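 note: 0% = vehicle and 100% = reference inhibitor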
Test settings: P. falciparum 3D7 crude extract, LDH APAD/NBT absorbance; at 2 µM; stronger effect = higher value
Here the recorded inhibition is given for each entry.
Only the number, expressed in %, is required.

Known results for compounds:
# Compound, Value units, Result number
records = [
    ("c1ccc2[nH]c(-c3ccc(-c4ccc(CN5CCC(N6CCCCC6)CC5)cc4)s3)nc2c1", "%", -5),
    ("c1ncc(CCNc2nc(Nc3ccc4c(c3)OCO4)nc(NC3CCCC3)n2)[nH]1", "%", -2),
    ("CC(Cc1ccc(OCCN2CCN(c3cccc(Cl)c3)CC2)cc1)NCC(O)c1cccc(Cl)c1 (stereo not given)", "%", 3),
    ("COc1ccc(CN2CCN(CCCCNC(=O)c3ccc(NC(=O)c4ccc(Cl)cc4)cc3)CC2)c(OC)c1", "%", -6),
    ("CCCCNc1c(C(=O)OCC)c(C)nc2c1[nH]c1ccccc12", "%", 3),
    ("CCc1nc(N)nc(N)c1-c1ccc(C(C)(C)C)cc1", "%", -7),
]

Note to self: inhibition recorded for O=C(Nc1cccc(-c2cccc(-c3nc4ccc(F)cc4[nH]3)c2)c1)c1csnn1 was -4

Recorded result, CC1(C)OC[C@]2(C)[C@@H](CC[C@]3(C)C4=CC(=O)CCC4CC[C@@H]23)O1 (stereo not given in full) , inhibition: 1

get_value(item= Cc1nnc2c(NC(=O)NC3CCCC3)cc3cc(-c4ccc(CN5CCCCC5)cc4)ccc3n12 , readout=inhibition) returns -3

inhibition for CC(CCCCC(=O)Nc1ccc(CC(C)NCCc2cccc(Cl)c2)cc1)NCCc1cccc(Cl)c1 (stereo not given) is -1

What the record says about Cc1cc(N[C@@H](CC(C)C)C(=O)NCCc2ccccc2)nc(NCCc2ccc(F)cc2)n1 : inhibition is -1

inhibition reported for this compound CCOc1cc(C(=O)NCc2ccc(Cl)c(Cl)c2)ccc1-c1nc2ccc(Cl)cc2[nH]1 : -2

Item: COc1cc(-c2cnc(N)c(-c3nc4ccccc4[nH]3)c2)cc(OC)c1OC | inhibition: 7

response.value for Cc1cc(N[C@@H](Cc2ccccc2)C(=O)Nc2ccccc2)nc(NCCc2ccc(F)cc2)n1 (field: inhibition) = 0

inhibition in this record for OCC(CO)(CO)NCc1ccc2c3c(cccc13)-c1ccccc1-2 : 0

# compound COc1cccc(Nc2nccc(NCC(O)c3cccc(C(F)(F)F)c3)n2)c1 (stereo not given) ; its inhibition = -4

So, NC(N)=NN=Cc1c2ccccc2c(Cl)c2cc(Cl)ccc12 ? Its inhibition was -3

So for CCCCCCc1ncc(-c2cc3cc(O)c(-c4ccccc4)cc3oc2=O)s1 , the logged inhibition turned out to be -8

Please fill in: inhibition reported for COC(=O)[C@@H](NC(=O)[C@H](Cc1ccc(OC)c(OC)c1)Nc1ccc(C#N)c2ccccc12)c1ccc(O)cc1 = 5

Noted for CCOC(=O)c1ccc(OCCCCCCOc2ccc(Br)cc2)cc1 : its inhibition reads -4

Entry Nc1nccc2ccc(-c3ccsc3)cc12 — recorded inhibition = 4

Entry COc1ccc2c(NN=Cc3cccc(C)n3)ccnc2c1 , inhibition reported as 3

Sample CS(=O)(=O)c1ccc(CNCc2cccc(-c3cccc(-c4nc5ccc(C(F)(F)F)cc5[nH]4)c3)c2)cc1 ; inhibition observed: 2

Measured inhibition, CCc1cc(NC2CCN(C)CC2)nc(Nc2cccc(OC)c2)n1 : -6
